test system: CCRF-CEM leukemia; experiment: NCI tumour cell line growth inhibition, 48 h
readout: TGI

# compound, readout, endpoint.result
data = [
    ("COc1cc(C=O)cc(/C=N/N=C/c2ccccc2O)c1O", "TGI", "70.3 µM"),
    ("O=C1c2ccccc2-c2c1c(-c1ccc(O)cc1O)nc1ccc3ccccc3c21", "TGI", "> 100 µM"),
    ("COc1ccc(/C=C/c2nnc(/C=C/c3ccc(OC)c(OC)c3)o2)cc1OC", "TGI", "> 100 µM"),
    ("CC(=O)OCC1OC(n2c(-c3ccc(C)cc3)cc(-c3ccco3)c(C#N)c2=S)C(OC(C)=O)C(OC(C)=O)C1OC(C)=O (stereo not drawn)", "TGI", "> 100 µM"),
    ("CCOC(=O)COc1ccc(OCC(=O)OCC)c2c1C(=O)CCCC2=O", "TGI", "> 100 µM"),
]

Qu. Name the recorded TGI for COc1cc(/C=N\O)cc(/C=N/O)c1O .
Ans. 25.1 µM

Qu. Name the recorded TGI for C/C(CCn1[nH]c(=O)ccc1=O)=N\N=C(N)N .
Ans. > 100 µM

Qu. Name the recorded TGI for O=S1CCN(Cc2ccc(-c3ccc4ncnc(Nc5ccc(OCc6ccccc6)c(Cl)c5)c4c3)o2)CC1 .
Ans. > 25 µM

Ref: PubChem BioAssay (NCI)
